Quick reference: IC50 of the listed items.
Target: wild-type HIV-1 protease (Human immunodeficiency virus type 1 group M subtype B, UniProt P04585)
Assay: Assay for inhibition of microbial expressed HIV protease
Format: biochemical
Settings: wild-type HIV-1 protease expressed in E. coli, peptide substrate, pH 5.5; read-out: Enzyme Inhibition - IC50

- entrySmiles: "COC(=O)N[C@@H](Cc1ccccc1Cl)C(=O)N[C@H](CCC[C@@H](CO)N(CC(C)C)S(=O)(=O)c1ccc(CO)cc1)C1CC1"
  IC50: "0.634 nM"
- entrySmiles: "COC(=O)N[C@H](C(=O)NC1(CCC[C@@H](CO)N(CCC(C)C)S(=O)(=O)c2ccc(N)cc2)CCCC1)C(c1ccccc1)c1ccccc1"
  IC50: "0.37 nM"
- entrySmiles: "CN[C@H](C(=O)N[C@H](CCC[C@@H](CO)N(CCC(C)C)S(=O)(=O)c1ccc(CO)cc1)C1CC1)C(c1ccccc1)c1ccccc1"
  IC50: "0.01 nM"
- entrySmiles: "CC[C@@H](CCC[C@@H](CO)N(CCC(C)C)S(=O)(=O)c1ccc(N)cc1)NC(=O)[C@H](Cc1ccccc1Br)NC(=O)OC"
  IC50: "0.196 nM"
- entrySmiles: "COC(=O)N[C@H](C(=O)N[C@@H](C)CCC[C@@H](CO)N(CCC(C)C)S(=O)(=O)c1ccc2ncsc2c1)C(c1ccccc1)c1ccccc1"
  IC50: "0.042 nM"
- entrySmiles: "COC(=O)N[C@H](C(=O)NC(C)(C)CCC[C@@H](CO)N(CC(C)C)S(=O)(=O)c1ccc(N)cc1)C(c1ccccc1)c1ccccc1"
  IC50: "0.154 nM"
- entrySmiles: "CCCN([C@H](CO)CCC[C@@H](NC(=O)[C@@H](NC(=O)OC)C(c1ccccc1)c1ccccc1)C(F)(F)F)S(=O)(=O)c1ccc(N)cc1"
  IC50: "0.022 nM"
- entrySmiles: "CCCN([C@H](CO)CCC[C@@H](NC(=O)[C@@H](NC(=O)OC)C(c1ccccc1)c1ccccc1)C1CC1)S(=O)(=O)c1ccc(N)cc1"
  IC50: "0.206 nM"
- entrySmiles: "CCCN([C@H](CO)CCCC(C)(C)NC(=O)[C@@H](NC(=O)OC)C(c1ccccc1)c1ccccc1)S(=O)(=O)c1ccc(N)cc1"
  IC50: "0.095 nM"
- entrySmiles: "COC(=O)N[C@H](C(=O)N[C@H](CCC[C@@H](CO)N(C(C)C)S(=O)(=O)c1ccc(N)cc1)C(C)C)C(c1ccccc1)c1ccccc1"
  IC50: "1.76 nM"
- entrySmiles: "COC(=O)N[C@H](C(=O)N[C@@H](C)CCC[C@@H](CO)N(CCCF)S(=O)(=O)c1ccc(CO)cc1)C(c1ccccc1)c1ccccc1"
  IC50: "0.01 nM"
- entrySmiles: "COC(=O)N[C@H](C(=O)N[C@H](CCC[C@@H](CO)N(C(C)C)S(=O)(=O)c1ccc(N)cc1)C(F)(F)F)C(c1ccccc1)c1ccccc1"
  IC50: "0.076 nM"
